protocol summary: in vivo
condition description: male, CD-1, mouse
experimental endpoint: bioavailability

Which bioavailability reading was recorded for the compound CC(C)C[C@@H]1NC(=O)c2ccc(-c3ccc(N4CCNCC4)cc3)c(c2)CNC(=O)[C@@H]2CCCN2[C@H](C(=O)NC(C)(C)C)[C@H](C)NC(=O)[C@H]([C@@H](C)O)NC(=O)[C@H](CC(=O)O)NC1=O ?
~11%

----------
Tested on: plasma proteins
protocol summary: in vitro
condition description: CD-1, mouse, % unbound (Cbuffer/Cplasma) 1
experimental endpoint: fraction unbound at 5 hours, 1 microM
Format: numeric value only, no unit, no commentary.

For the compound CC[C@H](C)[C@@H]1NC(=O)[C@H](CC(=O)O)NC(=O)[C@H](CC(C)C)NC(=O)[C@H](Cc2ccc3ccccc3c2)NC(=O)[C@@H]2CCCN2[C@H](C(=O)NC(C)(C)C)[C@H](C)NC1=O [Compound No. 15] , what fraction unbound at 5 hours, 1 microM is on record?
0.1
